Provide the recorded z-score for the entries that follow.
PROTOCOL TEXT: Primary imaging screen for DUSP6 inhibitors that restore phospho-Erk in transfected HeLa cells, chemical complementation (AID 609)
RUN PARAMETERS: HeLa MKP-3 transfected, phospho-Erk imaging KS statistic; measured here: nuclear pErk red intensity z-score; at 10 µM; stronger effect = higher value
One number for each entry.

>>> measured_number("OC1(c2ccc(F)cc2)CCNC1 (configuration not stated)")
1.31
>>> measured_number("CN(C)[C@@H]1C(=O)C(C(N)=O)=C(O)[C@@]2(O)C(=O)C3=C(O)c4c(O)cccc4[C@@](C)(O)[C@H]3C[C@@H]12")
-1.49
>>> measured_number("Cc1c2ccncc2c(C)c2c1[nH]c1ccccc12")
-1.2
>>> measured_number("CCN(CC)CCCC(C)N=C(c1ccccc1)c1c(O)n(C)c(=O)n(C)c1=O (configuration not stated)")
1.57
>>> measured_number("COC(=O)C(O)(c1ccc(NC(=O)c2ccco2)c(OC)c1)C(F)(F)F (configuration not stated)")
1.11

# batch: return z-score for each of the 5 molecules below
1. CCOC(C(=O)OCC(O)CN(CC)CC)(c1ccccc1)c1ccccc1 (configuration not stated)
2. CCCCOCCCn1c(N)c(C(=O)OCCOC)c2nc3ccccc3nc21
3. CCOc1ccccc1-n1c(O)c(C=Nc2c(C)n(C)n(-c3ccccc3)c2=O)c(=O)[nH]c1=O
4. CCN(CC)CCN=C(C)c1c(O)n(-c2ccccc2OC)c(=O)[nH]c1=O
5. CCCCSP1(=S)NCCCO1 (configuration not stated)

[out]
[1.71, 0.203, 0.143, 1.36, -1.55]

# batch: return z-score for each of the 7 molecules below
1. CN(C)[C@@H]1C(=O)C(C(N)=O)=C(O)[C@@]2(O)C(=O)C3=C(O)c4c(O)ccc(Cl)c4[C@@](C)(O)C3C[C@@H]12 (some centres not stated)
2. CCC(COC(=O)c1cc(OC)c(OC)c(OC)c1)(c1ccccc1)N(C)C (configuration not stated)
3. CCCC(C)(COC(N)=O)COC(=O)NC(C)C (configuration not stated)
4. CN1C(=O)CN=C(c2ccc(Cl)cc2)c2cc(Cl)ccc21
5. COP(=O)(OC)C(O)C(Cl)(Cl)Cl (configuration not stated)
6. COc1ccc(C2SCC(=O)Nc3c2c(=O)[nH]n3C2CCCCC2)cc1 (configuration not stated)
7. CCCSP1(=S)NCCCO1 (configuration not stated)

[out]
-0.997
-0.404
-1.67
0.523
0.972
-0.612
-0.356

# batch: return z-score for each of the 5 molecules below
1. C=CCC1(CN2CCCCCC2=O)C(=O)NC(=O)NC1=O
2. CC(=O)[C@@]1(O)CC[C@H]2[C@@H]3CC=C4C[C@@H](O)CC[C@]4(C)[C@H]3CC[C@@]21C
3. CC(=O)OC1N=C(c2ccccc2)c2ccccc2NC1=O (configuration not stated)
4. COc1ccc(Cn2c(O)c(C=NCCN3CCOCC3)c(=O)[nH]c2=O)cc1
5. O=c1[nH]c(=O)n(Cc2ccco2)c(O)c1C=NCCCn1ccnc1

[out]
-1.06
-0.36
-0.528
-0.227
0.884

Values from PubChem BioAssay
